Every entry's value here was drawn from patent US20050197338A1.

Target: human IKK-2 (rhIKK-2 homodimer) (Homo sapiens)
Construct: FLAG (DYKDDDDKD) (C); made in house; host or cells: insect cells (baculovirus, pFastBac)
Sequence (O14920 1-756): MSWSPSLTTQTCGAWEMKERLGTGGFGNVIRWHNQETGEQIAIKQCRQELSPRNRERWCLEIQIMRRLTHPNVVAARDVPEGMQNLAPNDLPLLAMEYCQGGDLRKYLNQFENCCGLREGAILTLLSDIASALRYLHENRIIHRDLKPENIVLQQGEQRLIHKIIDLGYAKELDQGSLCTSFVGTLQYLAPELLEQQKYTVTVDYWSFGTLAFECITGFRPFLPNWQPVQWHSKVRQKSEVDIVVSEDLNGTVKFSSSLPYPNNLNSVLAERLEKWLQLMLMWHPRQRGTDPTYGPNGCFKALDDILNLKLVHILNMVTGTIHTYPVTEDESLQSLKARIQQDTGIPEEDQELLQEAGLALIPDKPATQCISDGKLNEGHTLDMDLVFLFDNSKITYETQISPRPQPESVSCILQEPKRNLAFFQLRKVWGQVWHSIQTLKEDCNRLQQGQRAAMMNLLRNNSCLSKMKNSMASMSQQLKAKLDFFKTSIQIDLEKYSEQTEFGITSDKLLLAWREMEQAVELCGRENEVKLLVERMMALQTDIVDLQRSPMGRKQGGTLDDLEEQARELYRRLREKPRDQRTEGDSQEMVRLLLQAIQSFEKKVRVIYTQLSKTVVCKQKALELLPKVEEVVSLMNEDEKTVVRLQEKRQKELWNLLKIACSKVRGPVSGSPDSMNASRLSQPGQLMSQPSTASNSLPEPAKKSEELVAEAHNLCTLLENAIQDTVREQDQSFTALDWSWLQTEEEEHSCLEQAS
Assay: IKK-2 Resin Enzyme Assay (Human IKK-2 Enzyme Assay)
Format: biochemical
Conditions: human IKK-2, resin enzyme assay; read-out: IC50 (μM) hIKK-2
propertyName: IC50 (µM)
Numbers only, in µM.

NC(=O)Nc1cn(-c2ccc(-c3ccc(C(=O)O)cc3)cc2)nc1C(N)=O    0.17

For the 8 compounds below, give their IC50 values.
1. NC(=O)Nc1cn(-c2cccc(-c3cccc(N)c3)c2)nc1C(N)=O
2. NC(=O)Nc1cn(-c2cccc(Br)c2)nc1C(N)=O
3. NC(=O)Nc1cn(-c2ccc(Sc3ccccn3)cc2)nc1C(N)=O
4. NC(=O)Nc1cn(-c2ccc(-c3cccc(OC(F)(F)F)c3)cc2)nc1C(N)=O
5. NC(=O)Nc1cn(-c2ccc([S+]([O-])C3CCCCC3)cc2)nc1C(N)=O (stereo not drawn)
6. NC(=O)Nc1cn(-c2ccc([S+]([O-])c3cccc(F)c3)cc2)nc1C(N)=O (stereo not drawn)
7. COc1cccc(-c2ccc(-n3cc(NC(N)=O)c(C(N)=O)n3)cc2)c1F
8. NC(=O)Nc1cn(-c2cccc(-c3ccc(O)cc3)c2)nc1C(N)=O

1. 2.08
2. 0.61
3. 1.13
4. 7.73
5. 2.54
6. 0.532
7. 0.972
8. 0.66
